This listing pairs compounds with measured viability, T/C.
test system: 883617-216-R-J1-PDC tumor spheroids, viability; assay: Anticancer human tumor 883617-216-R-J1-PDC patient-derived bladder carcinoma cell line growth inhibition [PI3K]; settings: second compound 1 µM; first compound 0.0316 µM; stronger effect = lower value; spheroids with HUVEC and MSC
Could you give me the number in %? Just the number is fine.

Consider the reported viability, T/C for these compounds:
Cn1nccc1Nc1nccc(-c2ccn(C(CO)c3ccc(Cl)c(F)c3)c(=O)c2)n1 (centres undefined) + CC(Nc1ccc2c(c1)OCCn1cc(N3C(=O)OCC3C(F)F)nc1-2)C(N)=O
14.9
Cn1ncc(Cl)c1-c1cc(C(=O)NC(CN)Cc2cccc(F)c2)sc1Cl (centres undefined) + COc1c(OCCCN2CCOCC2)ccc2c3n(c(=NC(=O)c4cnc(N)nc4)nc12)CCN3
3.15
C=CC(=O)N1CCN(c2nc(=O)n(-c3c(C)ccnc3C(C)C)c3nc(-c4c(O)cccc4F)c(F)cc23)C(C)C1 (centres undefined) + COc1c(OCCCN2CCOCC2)ccc2c3n(c(=NC(=O)c4cnc(N)nc4)nc12)CCN3
1.07

// switching to the query compound
In: Quick one: give measured viability, T/C for CC(=O)c1c(C)c2cnc(Nc3ccc(N4CCNCC4)cn3)nc2n(C2CCCC2)c1=O + CC(Nc1ccc2c(c1)OCCn1cc(N3C(=O)OCC3C(F)F)nc1-2)C(N)=O
Out: 15.5

###

Test system: 883617-216-R-J1-PDC tumor spheroids, viability
Assay: Anticancer human tumor 883617-216-R-J1-PDC cell line growth inhibition [PI3K];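 further: spheroids exposed to agents for 7 days before the viability read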
Details: second compound 0.0316 µM; first compound 0.316 µM; stronger effect = lower value; spheroids with HUVEC and MSC
From the text: Combinatorial screen of targeted agents with the PI3K inhibitors inavolisib, alpelisib, duvelisib, and copanlisib in multi-cell type tumor spheroids A high-throughput screen of multi-cell type tumor spheroids was designed to identify active combinations of targeted small molecules and PI3K pathway inhibitors. […] Compounds. […] If the clinical Cmax for an agent had not been determined, the highest concentration tested was 10 microM. […]
Simple rule here: viability, T/C less than 60% is t, otherwise f.

CCN1CCN(Cc2ccc(Nc3ncc(F)c(-c4cc(F)c5nc(C)n(C(C)C)c5c4)n3)nc2)CC1 + CC(Nc1ncnc2nc[nH]c12)c1cc2cccc(Cl)c2c(=O)n1-c1ccccc1
t
C[C@@H](NC(=O)c1ncnc(N)c1Cl)c1ncc(C(=O)Nc2cc(C(F)(F)F)c(Cl)cn2)s1 + Cc1nc(NC(=O)N2CCCC2C(N)=O)sc1-c1ccnc(C(C)(C)C(F)(F)F)c1
f
Cn1nccc1Nc1nccc(-c2ccn(C(CO)c3ccc(Cl)c(F)c3)c(=O)c2)n1 (stereo not given) + CC(Nc1ncnc2nc[nH]c12)c1cc2cccc(Cl)c2c(=O)n1-c1ccccc1
f

In: Record CC(C)NCC(C(=O)N1CCN(c2ncnc3c2C(C)CC3O)CC1)c1ccc(Cl)cc1 (stereo not given) + Cc1nc(NC(=O)N2CCCC2C(N)=O)sc1-c1ccnc(C(C)(C)C(F)(F)F)c1 : is its viability, T/C strictly below 60%?
Out: t

In: I'd appreciate it if you could check whether CC(Cn1ccc(-c2ccc(C#N)c(Cl)c2)n1)NC(=O)c1cc(C(C)O)[nH]n1 (stereo not given) + Cc1nc(NC(=O)N2CCCC2C(N)=O)sc1-c1ccnc(C(C)(C)C(F)(F)F)c1 has viability, T/C smaller than 60%.
Out: f

In: In plain terms, does C#Cc1c(F)ccc2cc(O)cc(-c3ncc4c(N5CC6CCC(C5)N6)nc(OCC56CCCN5CC(F)C6)nc4c3F)c12 (stereo not given) + Cc1nc(NC(=O)N2CCCC2C(N)=O)sc1-c1ccnc(C(C)(C)C(F)(F)F)c1 come in under 60% for viability, T/C?
Out: f

In: Bench note: check whether C=CC(=O)N1CCN(c2nc(=O)n(-c3c(C)ccnc3C(C)C)c3nc(-c4c(O)cccc4F)c(F)cc23)C(C)C1 (stereo not given) + CC(Nc1ccc2c(c1)OCCn1cc(N3C(=O)OCC3C(F)F)nc1-2)C(N)=O shows viability, T/C below 60%
Out: t

###

tested on: 883617-216-R-J1-PDC tumor spheroids, viability; assay: Anticancer human tumor 883617-216-R-J1-PDC cell line growth inhibition [PI3K]; conditions: second compound 1 µM; first compound 0.1 µM; stronger effect = lower value; spheroids with HUVEC and MSC;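 further: spheroids exposed to agents for 7 days before the viability read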
Binarize viability, T/C at 20%; below is MET, at or above is NOT MET.

In: Quick check: does C=CC(=O)N1CCN(c2nc(=O)n(-c3c(C)ccnc3C(C)C)c3nc(-c4c(O)cccc4F)c(F)cc23)C(C)C1 (stereo not given) + CC(Nc1ncnc2nc[nH]c12)c1cc2cccc(Cl)c2c(=O)n1-c1ccccc1 have viability, T/C under 20%?
Out: NOT MET

In: Field: below-cutoff. Rule: recorded viability, T/C strictly less than 20%. Subject: CCCS(=O)(=O)Nc1ccc(F)c(C(=O)c2c[nH]c3ncc(-c4ccc(Cl)cc4)cc23)c1F + CC(Nc1ncnc2nc[nH]c12)c1cc2cccc(Cl)c2c(=O)n1-c1ccccc1
Out: NOT MET

In: # check: viability, T/C < 20% for CC1(C)CCC(Nc2ncc(C(F)(F)F)c(-c3c[nH]c4c(P(C)(C)=O)c(C#N)ccc34)n2)CN1 (stereo not given) + CC(Nc1ccc2c(c1)OCCn1cc(N3C(=O)OCC3C(F)F)nc1-2)C(N)=O
Out: MET

###

test system: 883617-216-R-J1-PDC tumor spheroids, viability; experiment: Anticancer human tumor 883617-216-R-J1-PDC cell line growth inhibition [PI3K]; settings: second compound 0.316 µM; first compound 3.16 µM; stronger effect = lower value; spheroids with HUVEC and MSC;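 further: spheroids exposed to agents for 7 days before the viability read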
assay.endpoint: viability, T/C (%)
Numeric answer only, unit % assumed.

CC1(C)CCC(CN2CCN(c3ccc(C(=O)NS(=O)(=O)c4ccc(NCC5CCOCC5)c([N+](=O)[O-])c4)c(Oc4cnc5[nH]ccc5c4)c3)CC2)=C(c2ccc(Cl)cc2)C1 + COc1c(OCCCN2CCOCC2)ccc2c3n(c(=NC(=O)c4cnc(N)nc4)nc12)CCN3
4.63

In: Enter recorded viability, T/C with 883617-216-R-J1-PDC tumor spheroids, viability for C=CC(=O)N1CCN(c2nc(=O)n(-c3c(C)ccnc3C(C)C)c3nc(-c4c(O)cccc4F)c(F)cc23)C(C)C1 (stereo not drawn) + Cc1nc(NC(=O)N2CCCC2C(N)=O)sc1-c1ccnc(C(C)(C)C(F)(F)F)c1 here.
Out: 34.6

In: State viability, T/C on 883617-216-R-J1-PDC tumor spheroids, viability. Entry: C#Cc1c(F)ccc2cc(O)cc(-c3ncc4c(N5CC6CCC(C5)N6)nc(OCC56CCCN5CC(F)C6)nc4c3F)c12 (stereo not drawn) + COc1c(OCCCN2CCOCC2)ccc2c3n(c(=NC(=O)c4cnc(N)nc4)nc12)CCN3
Out: 3.89

###

# viability, T/C annotations
system: 883617-216-R-J1-PDC tumor spheroids, viability; assay: Anticancer human tumor 883617-216-R-J1-PDC cell line growth inhibition [PI3K]; details: second compound 0.316 µM; first compound 0.0316 µM; stronger effect = lower value; spheroids with HUVEC and MSC;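 further: spheroids exposed to agents for 7 days before the viability read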
Give a bare numeral; the unit % is implied.

C[C@@H](NC(=O)c1ncnc(N)c1Cl)c1ncc(C(=O)Nc2cc(C(F)(F)F)c(Cl)cn2)s1 + CC(Nc1ncnc2nc[nH]c12)c1cc2cccc(Cl)c2c(=O)n1-c1ccccc1
85.5
C[C@@H](NC(=O)c1ncnc(N)c1Cl)c1ncc(C(=O)Nc2cc(C(F)(F)F)c(Cl)cn2)s1 + COc1c(OCCCN2CCOCC2)ccc2c3n(c(=NC(=O)c4cnc(N)nc4)nc12)CCN3
7.26
Cn1nccc1Nc1nccc(-c2ccn(C(CO)c3ccc(Cl)c(F)c3)c(=O)c2)n1 (configuration not stated) + Cc1nc(NC(=O)N2CCCC2C(N)=O)sc1-c1ccnc(C(C)(C)C(F)(F)F)c1
47.3

In: Identify viability, T/C associated with the compound CCCS(=O)(=O)Nc1ccc(F)c(C(=O)c2c[nH]c3ncc(-c4ccc(Cl)cc4)cc23)c1F + Cc1nc(NC(=O)N2CCCC2C(N)=O)sc1-c1ccnc(C(C)(C)C(F)(F)F)c1
Out: 53.6

In: Supply measured viability, T/C of CC(C)n1nc(-c2ccc3oc(N)nc3c2)c2c(N)ncnc21 + Cc1nc(NC(=O)N2CCCC2C(N)=O)sc1-c1ccnc(C(C)(C)C(F)(F)F)c1 in your reply.
Out: 25.9

###

test system: 883617-216-R-J1-PDC tumor spheroids, viability; assay: Anticancer human tumor 883617-216-R-J1-PDC cell line growth inhibition [PI3K]; details: curve of first compound; second compound 0.0316 µM; spheroids with HUVEC and MSC;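 further: spheroids exposed to agents for 7 days before the viability read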
pIC50: −log10 of the molar value.
Collected pIC50 values appear next to each entry.

CC1(C)CCC(CN2CCN(c3ccc(C(=O)NS(=O)(=O)c4ccc(NCC5CCOCC5)c([N+](=O)[O-])c4)c(Oc4cnc5[nH]ccc5c4)c3)CC2)=C(c2ccc(Cl)cc2)C1 + Cc1nc(NC(=O)N2CCCC2C(N)=O)sc1-c1ccnc(C(C)(C)C(F)(F)F)c1
5.30

With those in mind, consider the next compound.
In: Please report pIC50 with 883617-216-R-J1-PDC tumor spheroids, viability for item CC(Cn1ccc(-c2ccc(C#N)c(Cl)c2)n1)NC(=O)c1cc(C(C)O)[nH]n1 (configuration not stated) + CC(Nc1ncnc2nc[nH]c12)c1cc2cccc(Cl)c2c(=O)n1-c1ccccc1 .
Out: < 5.00
